# Tested on: Cryptococcus neoformans
# TEST_DESCRIPTION: Antifungal activity against Cryptococcus neoformans LA314 assessed as reduction in fungal cell growth incubated for 48 hrs by broth microdilution method
# Type: functional
# MEASUREMENT_CONTEXT: LA314, 48 h
Below, each entry is listed alongside its reported MIC.

{"MOLECULE": "CC(n1nnc(CCN2CCN(C(c3ccccc3)c3ccccc3)CC2)n1)C(O)(Cn1cncn1)c1ccc(F)cc1F (stereo not given)", "TESTED_SYSTEM": "Cryptococcus neoformans", "RECORDED_VALUE": "1 to 16 µg/mL"}
{"MOLECULE": "OC(Cn1cncn1)(Cn1nnnc1CCN1CCN(c2ccc(Cl)cc2)CC1)c1ccc(F)cc1F (stereo not given)", "TESTED_SYSTEM": "Cryptococcus neoformans", "RECORDED_VALUE": "0.5 to 16 µg/mL"}
{"MOLECULE": "OC(Cn1cncn1)(Cn1nnnc1CCN1CCN(c2ccc(F)cc2)CC1)c1ccc(F)cc1F (stereo not given)", "TESTED_SYSTEM": "Cryptococcus neoformans", "RECORDED_VALUE": "0.5 to 16 µg/mL"}

The molecule identified as C[C@H](n1nnnc1CCN1CCN(c2ccccn2)CC1)[C@](O)(Cn1cncn1)c1ccc(F)cc1F registered its MIC at 0.12 to 16 µg/mL

// MIC lookup, molecule = C[C@H](n1nnc(CCN2CCN(c3ccccc3Cl)CC2)n1)[C@](O)(Cn1cncn1)c1ccc(F)cc1F , result: 0.25 to 16 µg/mL
